Potency values by entry
assay: qHTS RealTime-Glo MT Cell Viability Assay in HEK293 cells - 40 hour (AID 1224874); details: RealTime-Glo luminescence; note: potency is the fitted concentration of half-maximal effect; nearly all actives have a fitted effect of over 50% in size
Inconclusive results are not listed. Active and inactive are the calls of the source. Calls come from the whole dose curve; as a rule, active = well fitted cell-killing curve with a large enough effect in the repeat runs; inconclusive = weak or mixed curves, or effect the other way; inactive = flat fitted curve, though single readings scatter.

{"COMPOUND": "CCC[CH2][Sn]([CH2]CCC)([CH2]CCC)[O]C(=O)c1ccccc1", "Potency": "0.389 µM (active)"}
{"COMPOUND": "BrC(Br)C(Br)(Br)Br", "Potency": "27.7 µM (active)"}
{"COMPOUND": "C[CH2][Hg][N]1C(=O)C2C(C1=O)C1(Cl)C(Cl)=C(Cl)C2(Cl)C1(Cl)Cl (stereo unspecified)", "Potency": "2.08 µM (active)"}
{"COMPOUND": "Oc1ccc(C(c2ccc(O)cc2)(C(F)(F)F)C(F)(F)F)cc1", "Potency": "38.7 µM (active)"}
{"COMPOUND": "C[C@]12CC[C@H]3[C@@H](CCC4=CC(=O)CC[C@@]43C)[C@@H]1CC[C@@H]2O", "Potency": "48.6 µM (active)"}
{"COMPOUND": "Oc1ccc2ccc3cccc4ccc1c2c34", "Potency": "13.8 µM (active)"}
